From: ChEMBL document CHEMBL3433997

target: Solute carrier family 2, facilitated glucose transporter member 1 (Homo sapiens); test: ST_JUDE_LEISH: Cytotoxicity at 2uM final concentration against transgenic Leishmania Mexicana promastigotes LmGLUT1 that are glucose transport deficient and complemented with the human glucose transporter GLUT1. Activity is measured by DNA content using SYBR green in vitro; assay type: functional
For each record, write down the corresponding inhibition.
Field: numeric (%). Do not append units.

Could you tell me which inhibition is on file for "COc1cccc(-c2cnc(N)c(-c3nc4ccc(F)cc4[nH]3)c2)c1" ?
5.87

Could you tell me which inhibition is on file for "CCN(CC)S(=O)(=O)c1ccc(C=CC(=O)Nc2cc(Cl)ccc2N2CCOCC2)cc1" ?
6.36

Could you tell me which inhibition is on file for Cc1ccc(-c2nc3cc(C(=O)NC4CCC(N5CCCc6ccc(C#N)cc6C5)CC4)ccc3[nH]2)cc1 (centres undefined) ?
-1.44

Could you tell me which inhibition is on file for "O=C(/C=C/c1cccc(Cl)c1)Nc1ccc2nc(CN3CCCC3)ccc2c1" ?
3.42

Could you tell me which inhibition is on file for "C[C@H]1CN(Cc2cccc(-c3cc(CNC(=O)c4cccc(C(=O)c5ccc(Cl)c(Cl)c5)c4)ccc3F)c2)CCN1" ?
1.24

Could you tell me which inhibition is on file for "CCc1c[nH]c2c(N(c3ccccc3)S(C)(=O)=O)cc(C(=O)N[C@@H](Cc3ccccc3)[C@H](O)CNC(C)(C)CCCC(C)C)cc12" ?
0.74

Could you tell me which inhibition is on file for "CCNc1cc(C(=O)N[C@@H](Cc2ccccc2)[C@H](O)CNC(C)(C)CC(C)(C)C)c(F)c(N2CCCCS2(=O)=O)c1" ?
-2.27

Could you tell me which inhibition is on file for "CCn1c(-c2nonc2N)nc2c(-c3cccc(NC(=O)Nc4ccccc4Cl)c3)ncc(OCCCN)c21" ?
-1.06

Could you tell me which inhibition is on file for "CN1CCC(NCc2ccc(-c3cccc(S(=O)(=O)NCCc4ccccn4)c3)cc2)CC1" ?
0.27

Could you tell me which inhibition is on file for "N=C(N)NN=Cc1c2ccc(Cl)cc2c(Cl)c2ccc(Cl)cc12" ?
83.8

Could you tell me which inhibition is on file for C[C@H](NC(=O)[C@H](Cc1ccccc1)NC(=O)OC(C)(C)C)C(=O)N[C@@H](CC1CCCCC1)C(O)CN (some centres undefined) ?
-1.66

Could you tell me which inhibition is on file for "CS(=O)(=O)CCNCc1cccc(-c2cc3c(Nc4ccc(OCc5ccccc5)cc4)ncnc3cn2)c1" ?
13.7

Could you tell me which inhibition is on file for "CCN(CC)CCNc1ccc(Nc2ccnc3cc4ccccc4cc23)cc1" ?
0.35

Could you tell me which inhibition is on file for "Cc1ccc(C(=O)N2CCc3cc4nccc(N5CCN6CCC[C@H]6C5)c4cc32)cc1" ?
1.81

Could you tell me which inhibition is on file for COc1ccc(-c2cc(C(=O)N[C@@H](CC3CCCCC3)C(=O)NC3CCCc4ccccc43)ccc2O)cc1 (some centres undefined) ?
0.11

Could you tell me which inhibition is on file for NC(=O)c1ccsc1NC(=O)CNC(c1ccc(F)cc1)c1cccs1 (centres undefined) ?
2.48

Could you tell me which inhibition is on file for "Cc1cc(=O)c2cc(-c3ccc(OC(F)(F)F)cc3)ccc2[nH]1" ?
-2.2

Could you tell me which inhibition is on file for "CCCc1cc2c3c(N)nc(N)nc3ccc2n1C(CC)CC" ?
46.3

Could you tell me which inhibition is on file for "CCNC(=O)c1cc(S(=O)(=O)N2CCN(c3ccccn3)CC2)cs1" ?
0.14
